Source of measurements: patent US10208019B2

# system: human GLP-1R (Homo sapiens, UniProt P43220, G168S)
# Sequence (P43220 24-463 G168S limits assumed): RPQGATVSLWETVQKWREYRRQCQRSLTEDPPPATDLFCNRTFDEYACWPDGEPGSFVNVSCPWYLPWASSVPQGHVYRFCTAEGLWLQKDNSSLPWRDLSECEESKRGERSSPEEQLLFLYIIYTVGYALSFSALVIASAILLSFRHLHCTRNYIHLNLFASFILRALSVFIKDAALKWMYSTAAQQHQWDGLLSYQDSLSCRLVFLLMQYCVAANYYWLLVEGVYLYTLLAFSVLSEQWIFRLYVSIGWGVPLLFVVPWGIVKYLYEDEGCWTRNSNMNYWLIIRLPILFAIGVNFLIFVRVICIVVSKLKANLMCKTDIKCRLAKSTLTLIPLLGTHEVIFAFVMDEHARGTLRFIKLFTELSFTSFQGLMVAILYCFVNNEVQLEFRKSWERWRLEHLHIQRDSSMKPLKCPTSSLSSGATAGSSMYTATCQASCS
# procedureSummary: CHO GLP-1R Clone H6—Assay 1: HTRF cAMP cell-based functional agonist assay (high GLP-1R density)
# conditionsUsed: read-out: Assay 1 Emax (%), CHO GLP-1R Clone H6; relative to saturating concentration of full agonist GLP-1 (1 μM); arithmetic mean
measureName: Emax

Cn1c(CN2CCC(c3cccc(OCc4c(F)cccc4F)n3)CC2)nc2ccc(C(=O)O)cc21 [Example 9A-04]
89%
O=C(O)c1ccc2nc(CN3CCC(c4cccc(OCc5ccc(Cl)cc5F)n4)CC3)n(CC3CC(F)(F)C3)c2c1 [Example 11A-51]
69%
C[C@H]1CN(c2cccc(OCc3ccc(Cl)cc3F)n2)CCN1Cc1nc2ccc(C(=O)O)cc2n1Cc1ncco1 [Example 10A-18]
78%
Cn1cncc1Cn1c(CN2CCN(c3cccc(OCc4ccc(C#N)cc4F)n3)CC2)nc2ccc(C(=O)O)cc21 [Example 10A-37]
86%
COCCn1c(CN2CCN(c3cccc(OCc4ccc(Cl)cc4F)n3)CC2C(F)(F)F)nc2ccc(C(=O)O)cc21 (single isomer, unassigned; enantiomer 2) [Example 12A-02]
71%
Cc1cc(Cn2c(CN3CCC(c4cccc(OCc5ccc(Cl)cc5F)n4)CC3)nc3ccc(C(=O)O)cc32)on1 [Example 11A-47]
79%
CCn1cncc1Cn1c(CN2CCN(c3cccc(OCc4ccc(C#N)cc4F)n3)C[C@@H]2C)nc2ccc(C(=O)O)cc21 [Example 10A-63]
86%
CCN1CCC(Cn2c(CN3CCC(c4cccc(OCc5ccc(Cl)cc5F)n4)CC3)nc3ccc(C(=O)O)cc32)C1 (centres unmarked) [Example 11A-03]
100%
N#Cc1ccc(COc2cccc(C3CCN(Cc4nc5ccc(C(=O)O)nc5n4Cc4cnco4)CC3)n2)c(F)c1 [Example 10A-24]
78%
N#Cc1ccc(COc2nc(C3CCN(Cc4nc5ccc(C(=O)O)cc5n4C[C@@H]4CCO4)CC3)ccc2F)cc1 [Example 10A-55]
84%
CC1(Cn2c(CN3CCC(c4cccc(OCc5ccc(Cl)cc5F)n4)CC3)nc3ccc(C(=O)O)cc32)CCOC1 (centres unmarked) [Example 11A-14]
64%
C[C@H]1CN(c2cccc(OCc3ccc(Cl)cc3F)n2)CCN1Cc1nc2ccc(C(=O)O)cc2n1Cc1cocn1 [Example 10A-13]
67%
COCCn1c(CN2CCC(c3cccc(OCc4ccccc4)n3)CC2)nc2ccc(C(=O)O)cc21 [Example 1A-10]
86%
Cn1ncnc1Cn1c(CN2CCC(c3cccc(OCc4ccc(Cl)cc4F)n3)CC2)nc2ccc(C(=O)O)cc21 [Example 11A-33]
86%

---

Measured Emax values are reported for all entries that follow.
# system: human GLP-1R (Homo sapiens, UniProt P43220, G168S)
# procedureSummary: CHO GLP-1R Clone H6—Assay 1: HTRF cAMP cell-based functional agonist assay (high GLP-1R density)
# conditionsUsed: read-out: Assay 1 Emax (%), CHO GLP-1R Clone H6; relative to saturating concentration of full agonist GLP-1 (1 μM); arithmetic mean
Where a name gives a salt, the structure may show the parent alone.
measureName: Emax (%)

Cn1c(CN2CCC(c3cccc(OCc4cc(F)ccc4F)n3)CC2)nc2ccc(C(=O)O)cc21
93
COC1(Cn2c(CN3CCC(c4cccc(OCc5ccc(Cl)cc5F)n4)CC3)nc3ccc(C(=O)O)cc32)CCC1 [Example 10A-26]
59
COCCn1c(CN2CCC(c3cccc(OCc4c(F)cc(Cl)cc4F)n3)CC2)nc2ccc(C(=O)O)cc21
79
Cn1c(CN2CCC(c3cccc(OCc4ccc(Cl)cc4F)n3)CC2)nc2ccc(C(=O)O)cc21 [Example 1A-01, hydrochloride]
77
CCc1nc(Cn2c(CN3CCC(c4cccc(OCc5ccc(Cl)cc5F)n4)CC3)nc3ccc(C(=O)O)cc32)no1 [Example 10A-51]
72
C[C@H]1CN(c2cccc(OCc3ccc(C#N)cc3F)n2)CCN1Cc1nc2ccc(C(=O)O)cc2n1Cc1cnco1 [Example 10A-17]
77
N#Cc1ccc(COc2cccc(C3CCN(Cc4nc5ccc(C(=O)O)nc5n4C[C@@H]4CCO4)CC3)n2)c(F)c1
88
